# TEST SUMMARY: S. pombe growth modifiers, basal conditions – strain 972, OD600, 24 h, no modulator, primary screen (AID 1090);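 note: basal condition with compound alone and no growth modifier present; test concentration not given here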
# MEASUREMENT PARAMETERS: S. pombe 972 growth, called active from +8 up or from −8 down
The source made the active and inactive calls.
Reply using exactly one outcome from yes (1) (active), no (0) (inactive)

Query: # lookup: test call for COCCOC(=O)N1C(=O)[C@@]2(c3cc(C#CC4(O)CCCCCC4)ccc31)[C@H](c1ccccc1OCCO)N1[C@H](c3ccccc3)[C@H](c3ccccc3)OC(=O)[C@H]1[C@@H]2C(=O)N1CCc2cc(OC)c(OC)cc2C1
Reply: no (0)

Query: Outcome logged for COc1ccc([Si](C)(C)[C@@H]2[C@@H](CC(=O)N3CCC[C@H]3CO)O[C@]3(C(=O)N(Cc4cccc(I)c4)c4ccccc43)[C@H]2C)cc1 in this assay:
Reply: no (0)

Query: Hello, I am checking results. What call was entered for C=CC1c2cc(O)c(OC)cc2CCN1Cc1cccc(OC(F)(F)F)c1 (stereo not given) ?
Reply: yes (1)

Query: Identify the outcome logged in this assay for the compound shown: [N-]=[N+]=Nc1ccccc1[C@H]1OC(c2ccc(OCCCO)cc2)=N[C@@]1(CCS(=O)(=O)c1ccccc1)C(=O)NCc1ccccc1
Reply: no (0)

Query: Outcome logged for C=CC[C@]1(C(=O)N2CCOCC2)N=C(c2ccc(OCCCO)cc2)O[C@H]1c1ccccc1N=[N+]=[N-] in this assay:
Reply: no (0)

Query: What classification did COC(=O)[C@@]1(Cc2ccccc2)[C@H]2c3cc(C(=O)N(C)C)n(Cc4ccc(OC)c(OC)c4)c3C[C@H]2CN1C(=O)c1ccccc1 end up with in this test?
Reply: no (0)

Query: Tell me the recorded outcome of this test for COc1ccccc1CN1C(=O)c2ccccc2[C@@H](C(=O)NCc2ccccc2)[C@@H]1c1ccc(CO)cc1 .
Reply: no (0)

Query: Assay outcome for CCCCN1CC=CC23O[C@@H]4/C=C\CCCOC(=O)C4[C@H]2C(=O)N(CCCCCO)[C@@H]3C1=O (stereo not given in full) : what was it?
Reply: no (0)

Query: Tell me the assay call for O=C(CS)NCCCCCNC(=O)[C@@H]1C[C@@H]2C(=O)NCC(=O)N2[C@@H]1c1cccc(OCCO)c1 please.
Reply: no (0)

Query: # lookup: test call for NCCCCCCNC(=O)[C@H]1C[C@H]2C(=O)N[C@@H](Cc3ccccc3)C(=O)N2[C@H]1c1cccc(OCCO)c1
Reply: no (0)

Query: Dear colleague, could you share the recorded outcome for CCCC[C@@H]1C[C@H]1[C@@H](NC(=O)c1cccnc1)c1ccc(Cl)cc1 when you have a moment?
Reply: yes (1)

Query: Call for entry COCCOC(=O)N1C(=O)[C@@]2(c3ccccc31)[C@H](C(=O)N1CCCCCCC1)[C@H]1C(=O)O[C@H](c3ccccc3)[C@H](c3ccccc3)N1[C@@H]2c1ccc(OCCO)cc1 :
Reply: no (0)

Query: So what was the verdict on CCCC(=O)N(CCc1c[nH]c2ccccc12)[C@@H]1CC(C(=O)NCCO)=C[C@H](Oc2c(I)cc(CO)cc2OC)[C@H]1O in this test?
Reply: no (0)

Query: Per the assay record, what outcome was assigned to COc1ccc([C@H]2OC[C@@H]3CCC(=O)N32)cc1 ?
Reply: no (0)

Query: Short answer needed: outcome of this test for C=CC[C@]1(C(N)=O)N=C(c2ccc(OCCCO)cc2)O[C@H]1c1ccccc1 ?
Reply: no (0)

Query: Check the results log: what was the call for NCCCCCNC(=O)[C@H]1C[C@H]2C(=O)N[C@@H](Cc3ccccc3)C(=O)N2[C@H]1c1cccc(OCCO)c1 ?
Reply: no (0)

Query: Kindly provide the recorded test outcome for the following compound: COC(=O)c1c2oc(c1C(=O)OC)C(=O)NC1(CCCCC1)c1cn(nn1)C[C@H](Cc1ccccc1)NC(=O)N[C@H](CO)CC2
Reply: no (0)

Query: Recorded call for [N-]=[N+]=NCc1ccccc1[C@H]1OC(c2ccc(OCCCO)cc2)=N[C@@]1(Cc1ccccc1)C(=O)N1CCCCC1 ?
Reply: no (0)

Query: Recorded test outcome, item COC(=O)c1c(CC[C@@H](CO)NC(=O)N[C@@H](Cc2ccccc2)Cn2cc(-c3ccccn3)nn2)oc(C(=O)N2CCOCC2)c1C(=O)OC
Reply: no (0)

Query: What was the test verdict on COc1ccc([C@H]2C[C@H]3C(I)=C[C@@H]2C(=O)[C@]32CO2)cc1 ?
Reply: yes (1)

Query: Kindly provide the recorded test outcome for the following compound: CO[C@H]1O[C@H](CO)[C@@H](OC(=O)Nc2cccc(F)c2)[C@H](OC(=O)Nc2ccccc2)[C@H]1OC(=O)Nc1ccccc1
Reply: no (0)

Query: Recorded call for COc1ccc([Si](C)(C)[C@H]2[C@H](CCO)O[C@@]3(C(=O)N(Cc4ccccc4)c4ccc(N5CCCCC5=O)cc43)[C@@H]2C)cc1 ?
Reply: no (0)

Query: In this assay, the call recorded for C=C(/C(=C/C[C@H](OC(=O)c1ccncc1)c1ccc(OCCO)cc1)c1cc(C(=O)OC)ccc1OC)C(C)C was what?
Reply: no (0)

Query: Short answer needed: outcome of this test for COCCCNC(=O)[C@]1(Cc2ccccc2)N=C(c2ccc(OCCCO)cc2)O[C@@H]1c1ccccc1CN=[N+]=[N-] ?
Reply: no (0)

Query: Could you kindly confirm the outcome this assay logged for C=C(CCCC)/C(=C/C[C@H](OC(C)=O)c1ccc(OCCO)cc1)c1cnc2ccccc2c1 ?
Reply: no (0)

Query: What was the test verdict on O=C1OCCC=C[C@H]2OC34C=CCN(CCN5CCOCC5)C(=O)[C@H]3N(CCCCCO)C(=O)[C@@H]4C12 (stereo not given in full) ?
Reply: no (0)

Query: Could you check what this test reported for C[N+](C)(C)CCCC[C@@H]1NC(=O)[C@@H]2C[C@H](C(=O)NCCCCCN)[C@H](c3ccc(O)cc3)N2C1=O ?
Reply: no (0)

Query: What was the test verdict on O=C1[C@H]2C=C(I)[C@H](C[C@@H]2OCCCCO)[C@@]12CO2 ?
Reply: no (0)

Query: # lookup: test call for COCCCNC(=O)[C@@]1(Cc2ccccc2CN=[N+]=[N-])N=C(c2ccc(OCCCO)cc2)O[C@H]1c1ccccc1CN=[N+]=[N-]
Reply: no (0)

Query: For COc1ccccc1CN1C(=O)c2ccccc2[C@@]2(Cc3ccccc3N(CCCN(C)C)C2=O)[C@@H]1c1ccc(CO)cc1 , what call appears in the results of this test?
Reply: no (0)
